- PROCEDURE DETAILS: Stability of the five analytes in rat plasma
- Type: in vitro ADME
- MEASUREMENT CONTEXT: rat, 600 ng/mL
- Description: Stock standards of A5, A6, DSS, TFSA, TMCA and IS were prepared in methanol at a concentration of 1 mg/mL. A series of working standard solutions of the targeted compounds ranging from 10 to 20,000 ng/mL and the IS solution at 600 ng/mL were prepared by diluting the stock solutions with methanol and maintained at −20 °C. […]
READOUT KIND: Freeze-thaw stability, Mean (%)

{"COMPOUND": "COc1cc(/C=C/C(=O)O[C@H]2[C@H](O)[C@@H](CO)O[C@@]2(CO)O[C@H]2O[C@H](COC(=O)c3ccc(O)cc3)[C@@H](O)[C@H](O)[C@H]2O)cc(OC)c1OC [TFSA, tenuifoliside A]", "VAL": 96.3}
{"COMPOUND": "COc1cc(C=CC(=O)OCC2OC(OC3(CO)OC(CO)C(O)C3OC(=O)C=Cc3cc(OC)c(O)c(OC)c3)C(O)C(O)C2O)cc(OC)c1O (stereo not shown)", "VAL": 97.3}
{"COMPOUND": "COc1cc(/C=C/C(=O)O[C@H]2[C@H](O)[C@@H](CO)O[C@@]2(CO)O[C@H]2O[C@H](CO)[C@@H](O)[C@H](O)[C@H]2O)ccc1O", "VAL": 93.5}
{"COMPOUND": "COc1cc(C=CC(=O)OC2C(O)C(CO)OC2(CO)OC2OC(CO)C(O)C(O)C2O)cc(OC)c1O (stereo not shown)", "VAL": 91.5}

---

Listing of entries alongside the reported half-life.
- PROCEDURE DETAILS: Pharmacokinetics of five components in rat plasma after oral administration of RPT, LPT and HPT extracts (UHPLC-MS/MS)
- MEASUREMENT CONTEXT: male, SD, in vivo, 1.9 g/kg, t1/2

{"COMPOUND": "COc1cc(C=CC(=O)OC2C(O)C(CO)OC2(CO)OC2OC(CO)C(O)C(O)C2O)cc(OC)c1O (centres unmarked)", "half-life [h]": 1.43}
{"COMPOUND": "COc1cc(/C=C/C(=O)O[C@H]2[C@H](O)[C@@H](CO)O[C@@]2(CO)O[C@H]2O[C@H](CO)[C@@H](O)[C@H](O)[C@H]2O)ccc1O", "half-life [h]": 1.23}

---

- PROCEDURE DETAILS: Pharmacokinetics of five components in rat plasma after oral administration of RPT, LPT and HPT extracts (UHPLC-MS/MS)
- MEASUREMENT CONTEXT: male, SD, in vivo, 1.9 g/kg, AUC0-t
Listing of entries alongside the reported AUC(0-t).

{"COMPOUND": "COc1cc(/C=C/C(=O)O[C@H]2[C@H](O)[C@@H](CO)O[C@@]2(CO)O[C@H]2O[C@H](CO)[C@@H](O)[C@H](O)[C@H]2O)ccc1O", "AUC(0-t) [ng·h/mL]": 552}
{"COMPOUND": "COc1cc(C=CC(=O)OC2C(O)C(CO)OC2(CO)OC2OC(CO)C(O)C(O)C2O)cc(OC)c1O (stereo not drawn)", "AUC(0-t) [ng·h/mL]": 570}
{"COMPOUND": "COc1cc(/C=C/C(=O)O[C@H]2[C@H](O)[C@@H](CO)O[C@@]2(CO)O[C@H]2O[C@H](COC(=O)c3ccc(O)cc3)[C@@H](O)[C@H](O)[C@H]2O)cc(OC)c1OC [TFSA, tenuifoliside A]", "AUC(0-t) [ng·h/mL]": 284}

Just for reference, paper PMC7534330 is where these values come from.
